Test system: Staphlococcus aureus strain Smith
Type: cell-based
Starred links: 1 amine or outer side, 2 acyl side, 3 side chain; linkers in the order of their positions; H or OH if unused. Positions of bridges follow the written chain, without caps; N, C: chain ends. Non-standard residues stand in square brackets, D forms with d. Residues, ends and D or L forms follow the SMILES beside them. ξ: configuration not given here. *: point of attachment. Hexadecanesulfonyl = CCCCCCCCCCCCCCCCS(=O)(=O)*; ξAbu(βξ-NH2) = CC(N[*:3])C(N[*:1])C(=O)[*:2]; ξAsp(βξ-Me) = CC(C(=O)O)C(N)C(=O)O; ξAbu(3ξ-NH2) = CC(N)C(N)C(=O)O; X1 = CCCCCCCCCCS(=O)(=O)*; Pip = O=C(O)[CH]1CCCCN1; Dap = NC[CH](N)C(=O)O
Assignment: determine reported MIC w/o CaCl2 for the given compounds.
Return type: number; implicit unit µg/mL.

## Input What value of MIC w/o CaCl2 has been reported for the following compound? CCCCCCCCCCS(=O)(=O)NCC(=O)NC(CC(=O)O)C(=O)NC1C(=O)N2CCCCC2C(=O)NC(C(C)C(=O)O)C(=O)NC(CC(=O)O)C(=O)NCC(=O)NC(CC(=O)O)C(=O)NCC(=O)NC(C(C)N)C(=O)NC(C(C)C)C(=O)N2CCCC2C(=O)NC1C (stereo not drawn) [Compound 58] (X1-GD[ξAbu(βξ-NH2)][Pip][ξAsp(βξ-Me)]DGDG[ξAbu(3ξ-NH2)]VP; lactam 3-C; configuration not given here)
## Output 32000

## Input So what's the measured MIC w/o CaCl2 for this one? CCCCCCCCCCCCCCCCS(=O)(=O)NC(Cc1ccccc1)C(=O)NC(CC(=O)O)C(=O)NC1C(=O)N2CCCCC2C(=O)NC(C(C)C(=O)O)C(=O)NC(CC(=O)O)C(=O)NCC(=O)NC(CC(=O)O)C(=O)NCC(=O)NC(C(C)N)C(=O)NC(C(C)C)C(=O)N2CCCC2C(=O)NC1C (stereo not drawn) [Compound 62] (Hexadecanesulfonyl-FD[ξAbu(βξ-NH2)][Pip][ξAsp(βξ-Me)]DGDG[ξAbu(3ξ-NH2)]VP; lactam 3-C; configuration not given here)
## Output 4000

## Input Can you look up the measured MIC w/o CaCl2 of CCCCCCCCCCCCCCCCS(=O)(=O)NC(Cc1ccccc1)C(=O)NC(CC(=O)O)C(=O)NC1CNC(=O)C2CCCN2C(=O)C(C(C)CC)NC(=O)C(C(C)O)NC(=O)CNC(=O)C(CC(=O)O)NC(=O)CNC(=O)C(CC(=O)O)NC(=O)CNC(=O)C2CCCCN2C1=O (stereo not shown) [Compound 56] (Hexadecanesulfonyl-FD[Dap][Pip]GDGDGTIP; lactam 3-C; configuration not given here) for me?
## Output 8000
